Entry source: paper PMC12951562

measurement target: SOCS4 (Homo sapiens, UniProt Q8WXH5)
Construct: made in house; host or cells: HEK293 (transient transfection), unpurified extract
Sequence (Q8WXH5 whole entry): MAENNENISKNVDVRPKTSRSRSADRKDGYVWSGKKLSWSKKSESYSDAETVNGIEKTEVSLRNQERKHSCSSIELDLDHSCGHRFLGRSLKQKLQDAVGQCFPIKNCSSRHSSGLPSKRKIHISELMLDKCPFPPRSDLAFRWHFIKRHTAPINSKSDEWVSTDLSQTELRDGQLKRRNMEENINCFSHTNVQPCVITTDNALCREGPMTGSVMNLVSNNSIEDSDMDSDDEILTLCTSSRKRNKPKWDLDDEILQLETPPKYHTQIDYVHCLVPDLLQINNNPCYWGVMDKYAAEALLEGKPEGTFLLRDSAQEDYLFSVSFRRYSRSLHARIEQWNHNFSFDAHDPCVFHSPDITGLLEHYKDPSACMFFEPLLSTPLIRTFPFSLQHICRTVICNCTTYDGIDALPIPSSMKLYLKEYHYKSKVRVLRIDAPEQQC
method: biochemical
Assay type: binding
condition notes: primary screen, 10 μM; read-out: percent of DMSO vehicle control
The reader will find reported remaining activity at 10 µM values listed item by item below.
Provide only the numeric value, understood in %.

{"columns": ["compound", "remaining activity at 10 µM [%]"],
 "data": [
  ["CC(C)(C)[C@H](NC(=O)/C=C/c1ccc(OP(=O)(O)O)cc1)C(=O)N1CCC[C@H]1C(=O)N(c1ccccc1)c1ccc(I)cc1 [STAT6-IN-3]", 0],
  ["O=C(CCl)Nc1cccc(CNC(=O)[C@H](Cc2ccc(OP(=O)(O)O)cc2)NC(=O)Cc2ccc(F)cc2)c1 [MN551]", 9.6],
  ["O=C(COc1ccc2cc(C(=O)Nc3ccccc3)ccc2c1)NCc1ccc(OP(=O)(O)O)c(OP(=O)(O)O)c1 [Stafib-1]", 25.5]
]}

Shift focus to the following entry.
If you can, please state the reported remaining activity at 10 µM value of C/C(=C\C(=O)N[C@H](C(=O)N1CCC[C@H]1C(=O)N(c1ccccc1)c1ccc(I)cc1)C(C)(C)C)c1ccc(OP(=O)(O)O)cc1 [STAT6-IN-1] .
0

* * *

The reader will find reported remaining activity at 10 µM values listed item by item below.
measurement target: PLCG1(SH2dom.N-term.) (Homo sapiens, UniProt P19174)
Construct: SH2dom.N-term. denotes SH2 domain closest to N-terminus of protein; made in house; host or cells: HEK293 (transient transfection, unpurified extract)
Sequence (P19174 550-657 limits assumed): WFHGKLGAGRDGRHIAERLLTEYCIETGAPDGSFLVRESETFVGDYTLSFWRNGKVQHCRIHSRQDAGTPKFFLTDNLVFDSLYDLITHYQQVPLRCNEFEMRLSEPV
method: biochemical
Format: binding
condition notes: primary screen, 10 μM; read-out: percent of DMSO vehicle control

Below: 3 compounds and their reported remaining activity at 10 µM.
{"columns": ["compound", "remaining activity at 10 µM"],
 "data": [
  ["O=C(COc1ccc2cc(C(=O)Nc3ccccc3)ccc2c1)NCc1ccc(OP(=O)(O)O)c(OP(=O)(O)O)c1 [Stafib-1]", "82.6%"],
  ["C/C(=C\\C(=O)N[C@H](C(=O)N1CCC[C@H]1C(=O)N(c1ccccc1)c1ccc(I)cc1)C(C)(C)C)c1ccc(OP(=O)(O)O)cc1 [STAT6-IN-1]", "0.3%"],
  ["CC(C)(C)[C@H](NC(=O)/C=C/c1ccc(OP(=O)(O)O)cc1)C(=O)N1CCC[C@H]1C(=O)N(c1ccccc1)c1ccc(I)cc1 [STAT6-IN-3]", "32.7%"]
]}

If you can, please state the reported remaining activity at 10 µM value of O=C(CCl)Nc1cccc(CNC(=O)[C@H](Cc2ccc(OP(=O)(O)O)cc2)NC(=O)Cc2ccc(F)cc2)c1 [MN551] .
62.8%

* * *

measurement target: PIK3R1(SH2dom.N-term.) (Homo sapiens)
Construct: SH2dom.N-term. denotes SH2 domain closest to N-terminus of protein; made in house; host or cells: HEK293 (transient transfection, unpurified extract)
method: biochemical
Format: binding
condition notes: primary screen, 10 μM; read-out: percent of DMSO vehicle control
experimental readout: remaining activity at 10 µM (%)
Provide only the numeric value, understood in %.

Below: 3 compounds and their reported remaining activity at 10 µM.
{"columns": ["smiles representation", "experimental result"],
 "data": [
  ["C/C(=C\\C(=O)N[C@H](C(=O)N1CCC[C@H]1C(=O)N(c1ccccc1)c1ccc(I)cc1)C(C)(C)C)c1ccc(OP(=O)(O)O)cc1", 44.8],
  ["CC(C)(C)[C@H](NC(=O)/C=C/c1ccc(OP(=O)(O)O)cc1)C(=O)N1CCC[C@H]1C(=O)N(c1ccccc1)c1ccc(I)cc1", 85.6],
  ["O=C(COc1ccc2cc(C(=O)Nc3ccccc3)ccc2c1)NCc1ccc(OP(=O)(O)O)c(OP(=O)(O)O)c1", 88.8]
]}

Shift focus to the following entry.
If you can, please state the reported remaining activity at 10 µM value of O=C(CCl)Nc1cccc(CNC(=O)[C@H](Cc2ccc(OP(=O)(O)O)cc2)NC(=O)Cc2ccc(F)cc2)c1 .
99.8

* * *

measurement target: STAT5B (Homo sapiens, UniProt P51692)
Construct: made in house; host or cells: HEK293 (transient transfection), unpurified extract
Sequence (P51692 whole entry): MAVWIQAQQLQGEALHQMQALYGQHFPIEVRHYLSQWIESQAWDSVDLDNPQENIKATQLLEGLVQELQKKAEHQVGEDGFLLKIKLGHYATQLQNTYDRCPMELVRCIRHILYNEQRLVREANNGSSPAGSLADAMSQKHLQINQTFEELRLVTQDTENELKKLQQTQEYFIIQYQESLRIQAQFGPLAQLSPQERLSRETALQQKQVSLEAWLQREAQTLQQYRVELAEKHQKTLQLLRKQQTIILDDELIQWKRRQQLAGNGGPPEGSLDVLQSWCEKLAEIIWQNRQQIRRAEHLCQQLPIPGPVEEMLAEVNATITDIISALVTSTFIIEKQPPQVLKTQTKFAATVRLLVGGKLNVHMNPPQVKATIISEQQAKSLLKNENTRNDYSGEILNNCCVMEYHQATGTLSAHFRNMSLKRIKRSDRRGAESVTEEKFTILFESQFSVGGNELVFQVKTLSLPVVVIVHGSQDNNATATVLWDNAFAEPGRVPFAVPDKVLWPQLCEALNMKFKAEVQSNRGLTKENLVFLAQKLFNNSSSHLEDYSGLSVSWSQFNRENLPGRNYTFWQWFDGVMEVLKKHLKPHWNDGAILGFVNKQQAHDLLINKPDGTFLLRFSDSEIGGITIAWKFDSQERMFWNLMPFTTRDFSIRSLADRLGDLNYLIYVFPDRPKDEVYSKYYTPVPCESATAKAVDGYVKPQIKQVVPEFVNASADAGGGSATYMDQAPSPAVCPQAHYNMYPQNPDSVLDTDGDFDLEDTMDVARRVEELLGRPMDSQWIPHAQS
method: biochemical
Type: binding
condition notes: primary screen, 10 μM; read-out: percent of DMSO vehicle control
The reader will find reported remaining activity at 10 µM values listed item by item below.

If you can, please state the reported remaining activity at 10 µM value of CC(C)(C)[C@H](NC(=O)/C=C/c1ccc(OP(=O)(O)O)cc1)C(=O)N1CCC[C@H]1C(=O)N(c1ccccc1)c1ccc(I)cc1 [STAT6-IN-3] .
0%

How about C/C(=C\C(=O)N[C@H](C(=O)N1CCC[C@H]1C(=O)N(c1ccccc1)c1ccc(I)cc1)C(C)(C)C)c1ccc(OP(=O)(O)O)cc1 [STAT6-IN-1] ?
0%

How about O=C(COc1ccc2cc(C(=O)Nc3ccccc3)ccc2c1)NCc1ccc(OP(=O)(O)O)c(OP(=O)(O)O)c1 [Stafib-1] ?
0%

How about O=C(CCl)Nc1cccc(CNC(=O)[C@H](Cc2ccc(OP(=O)(O)O)cc2)NC(=O)Cc2ccc(F)cc2)c1 [MN551] ?
49.1%

* * *

measurement target: STAT3(D661Y)-nonphosphorylated (Homo sapiens, UniProt P40763, D661Y)
Construct: made in house; host or cells: HEK293 (transient transfection), unpurified extract, dephosphorylated by endogenous phosphatases
Sequence (P40763 whole entry D661Y): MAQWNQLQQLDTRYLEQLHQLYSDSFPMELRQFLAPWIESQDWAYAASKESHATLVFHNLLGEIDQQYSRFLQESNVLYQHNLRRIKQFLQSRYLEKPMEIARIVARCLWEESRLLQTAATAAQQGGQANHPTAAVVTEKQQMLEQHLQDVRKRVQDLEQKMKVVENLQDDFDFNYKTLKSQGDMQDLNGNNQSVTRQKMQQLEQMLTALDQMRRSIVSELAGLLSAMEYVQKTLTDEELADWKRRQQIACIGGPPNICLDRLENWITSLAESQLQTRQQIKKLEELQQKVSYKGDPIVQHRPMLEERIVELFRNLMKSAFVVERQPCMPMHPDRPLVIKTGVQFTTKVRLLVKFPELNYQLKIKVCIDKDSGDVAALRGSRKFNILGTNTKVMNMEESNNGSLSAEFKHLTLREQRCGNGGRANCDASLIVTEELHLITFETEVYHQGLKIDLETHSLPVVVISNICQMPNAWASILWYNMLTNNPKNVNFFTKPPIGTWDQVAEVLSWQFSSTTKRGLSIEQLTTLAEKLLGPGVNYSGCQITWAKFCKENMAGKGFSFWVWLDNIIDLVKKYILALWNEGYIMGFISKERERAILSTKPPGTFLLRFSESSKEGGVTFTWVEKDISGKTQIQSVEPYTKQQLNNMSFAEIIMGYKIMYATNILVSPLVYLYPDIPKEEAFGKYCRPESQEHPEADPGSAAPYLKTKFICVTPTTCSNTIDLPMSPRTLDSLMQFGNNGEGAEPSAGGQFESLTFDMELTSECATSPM
method: biochemical
Format: binding
experimental readout: Kd (nM)
Provide only the numeric value, understood in nM.

If you can, please state the reported Kd value of CC(=O)N1CC[C@H]2CC[C@@H](C(=O)N[C@@H](CCC(N)=O)C(=O)NC(c3ccccc3)c3ccccc3)N2C(=O)[C@@H](NC(=O)c2cc3cc(C(F)(F)P(=O)(O)O)ccc3[nH]2)C1 .
21

* * *

measurement target: PIK3R1(SH2dom.N-term.) (Homo sapiens, UniProt P27986)
Construct: SH2dom.N-term. denotes SH2 domain closest to N-terminus of protein; made in house; host or cells: HEK293 (transient transfection, unpurified extract)
Sequence (P27986 333-428 limits assumed): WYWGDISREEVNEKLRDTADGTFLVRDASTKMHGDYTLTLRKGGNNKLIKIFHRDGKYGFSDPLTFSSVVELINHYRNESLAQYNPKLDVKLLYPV
method: biochemical
Type: binding
condition notes: read-out: percent of DMSO vehicle control
Non-standard residues stand in square brackets, D forms with d. Residues, ends and D or L forms follow the SMILES beside them. *: point of attachment. pY = N[C@@H](Cc1ccc(OP(=O)(O)O)cc1)C(=O)O; Caffeoyl = O=C(/C=C/c1ccc(O)c(O)c1)*
The reader will find reported remaining activity at 10 µM values listed item by item below.
Provide only the numeric value, understood in %.

{"columns": ["compound", "experimental result"],
 "data": [
  ["NC(=O)CC[C@H](NC(=O)[C@@H]1CC[C@@H]2CCN(C(=O)CCCCCC#Cc3cccc4c3CN(C3CCC(=O)NC3=O)C4=O)C[C@H](NC(=O)c3cc4cc(C(F)(F)P(=O)(O)O)ccc4[nH]3)C(=O)N21)C(=O)NC(c1ccccc1)c1ccccc1 (stereo partly shown)", 124],
  ["CC(=O)N1CC[C@H]2CC[C@@H](C(=O)N[C@@H](CCC(N)=O)C(=O)NC(c3ccccc3)c3ccccc3)N2C(=O)[C@@H](NC(=O)c2cc3cc(C(F)(F)P(=O)(O)O)ccc3[nH]2)C1", 134],
  ["CC[C@H](C)[C@H](NC(=O)[C@H](CCC(=O)O)NC(=O)[C@H](CCC(=O)O)NC(=O)[C@H](Cc1ccc(OP(=O)(O)O)cc1)NC(=O)/C=C/c1ccc(O)c(O)c1)C(=O)N[C@@H](CCC(=O)O)C(=O)O [Caffeic acid-pYEEIE] (Caffeoyl-[pY]EEIE-OH)", 0.7]
]}

If you can, please state the reported remaining activity at 10 µM value of CC(=O)N[C@@H](Cc1ccc(CP(=O)(O)O)cc1)C(=O)NC1(C(=O)N[C@@H](CC(N)=O)C(=O)NCCCc2c(O)ccc3ccccc23)CCCCC1 .
109

* * *

The reader will find reported remaining activity at 10 µM values listed item by item below.
measurement target: STAT1 (Homo sapiens, UniProt P42224)
Construct: made in house; host or cells: HEK293 (transient transfection), unpurified extract
Sequence (P42224 1-750): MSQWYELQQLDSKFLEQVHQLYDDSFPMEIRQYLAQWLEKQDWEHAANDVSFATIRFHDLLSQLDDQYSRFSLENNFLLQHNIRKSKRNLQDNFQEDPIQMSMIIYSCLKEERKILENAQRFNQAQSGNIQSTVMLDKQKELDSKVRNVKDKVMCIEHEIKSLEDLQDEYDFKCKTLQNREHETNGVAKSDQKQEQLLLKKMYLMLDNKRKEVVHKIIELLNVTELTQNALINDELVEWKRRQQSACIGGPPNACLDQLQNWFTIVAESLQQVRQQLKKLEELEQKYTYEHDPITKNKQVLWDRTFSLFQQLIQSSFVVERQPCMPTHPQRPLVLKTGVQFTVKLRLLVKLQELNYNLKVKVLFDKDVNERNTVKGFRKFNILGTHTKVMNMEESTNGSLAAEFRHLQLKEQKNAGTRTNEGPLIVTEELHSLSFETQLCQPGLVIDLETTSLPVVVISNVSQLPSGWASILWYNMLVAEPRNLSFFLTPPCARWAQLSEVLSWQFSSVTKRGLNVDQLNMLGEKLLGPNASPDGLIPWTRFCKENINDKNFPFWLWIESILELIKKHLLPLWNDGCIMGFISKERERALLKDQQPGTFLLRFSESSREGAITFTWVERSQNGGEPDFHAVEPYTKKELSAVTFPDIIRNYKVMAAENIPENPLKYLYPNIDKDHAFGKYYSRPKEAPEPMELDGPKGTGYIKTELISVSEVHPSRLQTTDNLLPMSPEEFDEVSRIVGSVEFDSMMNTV
method: biochemical
Type: binding
condition notes: read-out: percent of DMSO vehicle control
Non-standard residues stand in square brackets, D forms with d. Residues, ends and D or L forms follow the SMILES beside them. *: point of attachment. pY = N[C@@H](Cc1ccc(OP(=O)(O)O)cc1)C(=O)O; Caffeoyl = O=C(/C=C/c1ccc(O)c(O)c1)*

Below: 3 compounds and their reported remaining activity at 10 µM.
{"columns": ["compound", "remaining activity at 10 µM"],
 "data": [
  ["NC(=O)CC[C@H](NC(=O)[C@@H]1CC[C@@H]2CCN(C(=O)CCCCCC#Cc3cccc4c3CN(C3CCC(=O)NC3=O)C4=O)C[C@H](NC(=O)c3cc4cc(C(F)(F)P(=O)(O)O)ccc4[nH]3)C(=O)N21)C(=O)NC(c1ccccc1)c1ccccc1 (stereo partly shown) [SD-36]", "9.1%"],
  ["CC[C@H](C)[C@H](NC(=O)[C@H](CCC(=O)O)NC(=O)[C@H](CCC(=O)O)NC(=O)[C@H](Cc1ccc(OP(=O)(O)O)cc1)NC(=O)/C=C/c1ccc(O)c(O)c1)C(=O)N[C@@H](CCC(=O)O)C(=O)O [Caffeic acid-pYEEIE] (Caffeoyl-[pY]EEIE-OH)", "27.1%"],
  ["CC(=O)N[C@@H](Cc1ccc(CP(=O)(O)O)cc1)C(=O)NC1(C(=O)N[C@@H](CC(N)=O)C(=O)NCCCc2c(O)ccc3ccccc23)CCCCC1 [CGP78850]", "71.2%"]
]}

Shift focus to the following entry.
Hello, I am looking for reported remaining activity at 10 µM with STAT1 (Homo sapiens, UniProt P42224) for CC(=O)N1CC[C@H]2CC[C@@H](C(=O)N[C@@H](CCC(N)=O)C(=O)NC(c3ccccc3)c3ccccc3)N2C(=O)[C@@H](NC(=O)c2cc3cc(C(F)(F)P(=O)(O)O)ccc3[nH]2)C1 [SI-109] . Could you help?
0%
